The values you see were collected from paper PMC5766609.

# MEASUREMENT_TARGET: glucagon receptor (human) (UniProt P47871)
# Sequence (P47871 26-477): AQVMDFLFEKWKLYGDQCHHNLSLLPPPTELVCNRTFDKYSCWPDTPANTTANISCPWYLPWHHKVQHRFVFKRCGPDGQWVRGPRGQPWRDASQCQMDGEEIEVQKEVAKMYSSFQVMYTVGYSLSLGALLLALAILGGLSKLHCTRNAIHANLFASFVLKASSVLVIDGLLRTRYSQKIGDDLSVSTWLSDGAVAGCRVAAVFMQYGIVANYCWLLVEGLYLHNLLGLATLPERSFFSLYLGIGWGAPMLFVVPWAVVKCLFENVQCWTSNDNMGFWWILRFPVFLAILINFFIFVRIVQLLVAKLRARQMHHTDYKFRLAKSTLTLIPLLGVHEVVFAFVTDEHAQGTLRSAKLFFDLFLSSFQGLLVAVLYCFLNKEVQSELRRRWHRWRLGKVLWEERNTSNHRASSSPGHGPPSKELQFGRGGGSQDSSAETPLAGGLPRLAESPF
No end group written: not given here.
METRIC_NAME: EC50 GCGR (nM); cAMP assay on CHO-JumpIn cells with human GCGR
Give bare numbers, in nM.

>  <BINDER>
HSQGTFTSDYSKYLDSIRAQDFVQWLMDT-NH2 [Peptide 18]

>  <QUANTITY_UNIT>
nM

>  <REPORTED_MEASUREMENT>
0.037

$$$$
>  <BINDER>
HSQGTFTSDYSKYLDSRRAHDFVQWLLNT-NH2 [Peptide 11]

>  <QUANTITY_UNIT>
nM

>  <REPORTED_MEASUREMENT>
0.018

$$$$
>  <BINDER>
HSQGTFTSDYSKYVEDRRAHDFVQWLMNT-NH2 [Peptide 2]

>  <QUANTITY_UNIT>
nM

>  <REPORTED_MEASUREMENT>
2.24

$$$$
>  <BINDER>
HSQGTFFSDYSKYLDSRRAQDFVQWLLET-NH2 [Peptide 34]

>  <QUANTITY_UNIT>
nM

>  <REPORTED_MEASUREMENT>
0.027

$$$$
>  <BINDER>
INHEQWAFTSDYSKYLDSRRAQDFVQWLMNT-NH2 [Peptide 14]

>  <QUANTITY_UNIT>
nM

>  <REPORTED_MEASUREMENT>
2.6

$$$$

Entry under review: HSQGTFTSDYRKYLDERAAWDFVQWLMNT-NH2 [Peptide 3] . Reported EC50 GCGR (nM); cAMP assay on CHO-JumpIn cells with human GCGR?
1.35
